- System: NCI-H226 lung
- PROCEDURE TEXT: NCI tumour cell line growth inhibition, 48 h
Items are presented alongside their recorded TGI.

Here is how some molecules turned out for TGI.
# MOLECULE, ASSAY METRIC, RESULT
rows = [
    ("COc1c(N2CCN(Cn3c(O)c(N=NC(=O)c4ccncc4)c4cc(F)ccc43)C(C)C2)c(F)cc2c(=O)c(C(=O)O)cn(C3CC3)c12 (stereo not drawn)", "TGI", "> 50 µM"),
    ("NS(=O)(=O)c1ccc(NC(=O)COC(=O)c2cccc3c(=O)c4ccccc4[nH]c23)cc1", "TGI", "61.1 µM"),
    ("C=CCCC(=O)N1C=CC(=O)[C@H](O)[C@@H]1/C=C/c1ccccc1", "TGI", "> 32.5 µM"),
    ("Cc1ccc2c(=O)c(-c3n[nH]c(=S)s3)c[nH]c2n1", "TGI", "> 100 µM"),
    ("CC(C)(C)OC(=O)N1N=NC2C3OC(CC3=O)C21 (stereo not drawn)", "TGI", "8.96 µM"),
    ("Cn1ccnc1C[N-]Cc1nccn1C.O=[N+]([O-])[O-].O=[N+]([O-])[O-].[Cu+2]", "TGI", "> 100 µM"),
]

Attention now shifts to the item below.
Please look up its TGI: COC(=O)C(Cc1nc2ccccc2[nH]c1=O)C(=O)C(=O)Nc1cc(C(F)(F)F)ccc1Cl (stereo not drawn)
35.1 µM

---

TGI overview
- System: 786-0 renal
- PROCEDURE TEXT: NCI tumour cell line growth inhibition, 48 h

# COMPOUND, TGI
data = [
    ("CCOP(=O)(OCC)C(Nc1ccc(F)cc1)c1ccccc1 (centres undefined)", "> 100 µM"),
    ("OC(c1ccccc1)(c1cccnc1)C(O)(c1ccccc1)c1cccnc1 (centres undefined)", "> 100 µM"),
    ("CCOP(=O)(OCC)C(C)(C)OC(=O)NC#N", "> 100 µM"),
    ("Cc1nnc(-c2ccc(-c3nc4ccccc4o3)cc2)o1", "> 100 µM"),
    ("N=C(N)SCCc1ccccn1", "> 100 µM"),
]

Can you share its TGI? I mean this compound: CCCCCCNC(=O)Oc1ccc(/C(=C(\C)c2ccccc2)c2ccc(OCCN(CC)CC)cc2)cc1
5.33 µM

Could you do the same for C=CC(Br)(CBr)CCC(Br)C(C)C (centres undefined) , please?
2.93 µM

Let us now turn to CO[C@H](C(=O)O)[C@@H]1Cc2cc3cc(OC4CC(OC5CC(O)C(O)C(C)O5)C(O)C(C)O4)c(C)c(O)c3c(O)c2C(=O)[C@H]1OC1CC(OC2CC(OC3CC(C)(O)C(O)C(C)O3)C(O)C(C)O2)C(O)C(C)O1 (some centres undefined)
> 32.5 µM

Repeat for the following compound: CC(/C=N/NC1=NCCCN1)=N\NC1=NCCCN1
> 100 µM

---

Listing: TGI of selected compounds
- System: NCI/ADR-RES ovarian
- PROCEDURE TEXT: NCI tumour cell line growth inhibition, 48 h

Would you mind telling me what TGI value was observed for COP(C)(=O)C(Cc1c[nH]c2ccccc12)NC(=O)OCc1ccccc1 (stereo unspecified) ?
> 100 µM

Check O=C1N[C@@H](COc2ccc(C=Nc3ccc(CCc4ccc(N=Cc5ccc(OC[C@@H]6COC(=O)N6)cc5)cc4)cc3)cc2)CO1 too.
> 100 µM

Now give it for Cc1ncc([N+](=O)[O-])n1CCNC(=O)CCCCCn1ccnc1[N+](=O)[O-] too.
> 100 µM

Entry to check: CC1(C)CC[C@]2(C(=O)O)[C@H](O)C[C@]3(C)C(=CC[C@@H]4[C@@]5(C)CC[C@H](OC6OC(C(=O)O)C(O)C(O)C6O)C(C)(C)[C@@H]5CC[C@]43C)[C@@H]2C1 (stereo partly specified)
> 100 µM

Continue with CC(=O)N1CCN(CCOc2ccc(C3CCN(C4=Nn5c(nnc5C(F)(F)F)CC4)CC3)cc2)CC1
> 100 µM

Next up: C/C=C1\CC(C(=O)OCC)CCCCCCCCCCC1=O (stereo unspecified)
> 100 µM

Next compound: CCCC1(N)CC(OC)OC(C)C1O (stereo unspecified)
> 100 µM

Then CCOC(=O)/C(C#N)=C/Nc1ccc(-c2nc3ccccc3[nH]2)cc1 ?
66.1 µM

Request: COc1ccc(C[C@@H]2OC3(C=CC(=O)C=C3)O[C@H]2Cc2ccc(OC)cc2)cc1
2.64 µM

Next compound: CCCCCCNC(=O)Oc1ccc(/C(=C(\C)c2ccccc2)c2ccc(OCCN(CC)CC)cc2)cc1
11.9 µM

What do we get for O=C1c2cc([N+](=O)[O-])sc2C(=O)c2ccsc21 ?
2.78 µM

Query CCOC(=O)Cc1csc(NC(=O)COC(=O)c2ccc(OC)cc2)n1 next
> 100 µM

Here is the next compound: CC(=O)N(CN1C(=O)CCC1C(=O)O)c1ccccc1Cl (stereo unspecified)
> 100 µM

What do we get for O=C(Nc1ccc(I)cc1F)c1cc(I)ccc1O ?
3.85 µM

What do you have for COc1cc(C=O)cc(C=Nc2ccc(S(N)(=O)=O)cc2)c1O ?
> 100 µM

Repeat with COC(=O)[C@]12CC[C@@H](C)[C@H](C)[C@@H]1C1=CC[C@@H]3[C@@]4(C)CC(=O)[C@H](OC(=O)c5ccco5)[C@@]5(C)COC(=C45)C[C@@]3(C)[C@]1(C)CC2
> 100 µM
